assay: PK study of liposomal rivastigmine in rats, subcutaneous injection; type: in vivo, Sprague-Dawley rats; conditions: female, Sprague-Dawley, rat, plasma, sc, single subcutaneous injection 10 mg/kg
Counter-ions that a name gives are not always drawn.

| compound | AUC(0-inf) |
| --- | --- |
| CCN(C)C(=O)Oc1cccc([C@H](C)N(C)C)c1 [Free Rivastigmine, rivastigmine tartrate] | 899 ng·h/mL |

###

assay: PK study of liposomal rivastigmine in rats, subcutaneous injection; assay type: in vivo, Sprague-Dawley rats; details: female, Sprague-Dawley, rat, plasma, sc, single subcutaneous injection 10 mg/kg, read-out: t½ (converted)
Where a name gives a salt, the structure may show the parent alone.
experimental endpoint: half-life (min)

| compound | experimental endpoint | display unit | value reported |
| --- | --- | --- | --- |
| CCN(C)C(=O)Oc1cccc([C@H](C)N(C)C)c1 [Free Rivastigmine, rivastigmine tartrate] | half-life | min | 55.8 |
